// data source = paper PMC9482650

target: LNX1_1, Q8TBB1; test: holdup assay; set-up: key: below the threshold = too weak to quantify, mostly under pKd 3.1 to 4; conditions: plain residues with an end cap or a label only (N-terminal biotin on a linker: ado-ado)
Sequence (Q8TBB1 261-371): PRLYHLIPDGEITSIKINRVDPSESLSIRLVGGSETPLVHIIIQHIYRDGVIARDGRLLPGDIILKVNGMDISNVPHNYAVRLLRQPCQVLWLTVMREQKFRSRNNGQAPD
Property: pKd

SVTSERETNI [SLC16A7, O60669]: below the threshold
PSHPRLQTHV [KIRREL2, Q6UWL6]: below the threshold
NTANRRTTPV [CACNG2, Q9Y698]: below the threshold
DPAESMESLV [PTPRG, P23470]: 4.06
ILRKSTTTTV [PRR16, Q569H4]: below the threshold
EDGESWEYQI [TRPV6, Q9H1D0]: below the threshold
LAHVKHKEQI [AQP3, Q92482]: below the threshold
QKAPTKEFYA [SDC2, P34741]: below the threshold

// returns reported pKd for input NISYRRESAI [KCNJ4, P48050]
below the threshold

// returns reported pKd for input SFISKKEWYV [NECTIN1, Q15223]
below the threshold

// returns reported pKd for input EIPAQSPTCV [FZD10, Q9ULW2]
below the threshold

// returns reported pKd for input PSVGSKKTVL [REELD1, A0A1B0GV85]
below the threshold

// returns reported pKd for input PYPTADHMLA [JUP, P14923]
below the threshold

// returns reported pKd for input PYSESDDDWC [CACNA1A, O00555]
below the threshold

// returns reported pKd for input ELSATVTTDC [TRIP6, Q15654]
3.95

// returns reported pKd for input PTPDLPQTRV [KLHDC7A, Q5VTJ3]
3.89
